Details: Crystal; DTA
EXPERIMENTAL_ENDPOINT: Normal melting temperature (°C)

Example compounds with recorded Normal melting temperature:
Field request: Normal melting temperature | item: `CCOc1cccc(C=O)c1O`
64.1

Return reported Normal melting temperature; argument: CCOc1cc(C=O)ccc1O [3-ethoxy-4-hydroxybenzaldehyde]
76.7

[I] COc1cc(C=O)ccc1O
[II] COc1cccc(C=O)c1O [2-hydroxy-3-methoxybenzaldehyde]
Of the two listed items, which has the higher Normal melting temperature? First: I Second: II Refer to your chosen item by its label in the answer.
I

---

Test: Molar enthalpy of transition or fusion
Conditions: Crystal; DSC
EXPERIMENTAL_ENDPOINT: Molar enthalpy of transition or fusion (kcal/mol)

Need Molar enthalpy of transition or fusion of `CCOc1cccc(C=O)c1O` , thanks.
6.08

Would you kindly share the measured Molar enthalpy of transition or fusion for CCOc1cc(C=O)ccc1O [3-ethoxy-4-hydroxybenzaldehyde] ?
6.06

Would you kindly share the measured Molar enthalpy of transition or fusion for `COc1cc(C=O)ccc1O` ?
5.73

What value of Molar enthalpy of transition or fusion has been reported for the following compound? COc1cccc(C=O)c1O [2-hydroxy-3-methoxybenzaldehyde]
4.94
